Cited source for all entries: paper PMC3181126

- EXPERIMENT DESCRIPTION: Fluorescence spectroscopy
- Type: physicochemical
- CONDITION SUMMARY: EtOH, free bases; standard quinine sulfate
READOUT NAME: Φ (quantum yield)

P. O=[N+]([O-])c1ccc(NCCOCCOc2cccc3c2CCCC3CCCN2CCN(C3CCCCC3)CC2)c2nonc12 (stereo not shown)
Q. COc1cccc2c1CCCC2CCCN1CCN(C2CCN(CCCCCCNS(=O)(=O)c3cccc4c(N(C)C)cccc34)CC2)CC1 (stereo not shown)
R. CN(C)c1cccc2c(S(=O)(=O)NCCCCCCOc3cccc4c3CCCC4CCCN3CCN(C4CCCCC4)CC3)cccc12 (stereo not shown)
S. COc1cccc2c1CCCC2CCCN1CCN(C2CCN(CCCCCCNc3ccc([N+](=O)[O-])c4nonc34)CC2)CC1 (stereo not shown)
Problem: # rank by Φ (quantum yield), ascending (min first) Answer by listing the labels in the order asked for.
Solution: P, S, R, Q
(P: 0.04, S: 0.08, R: 0.20, Q: 0.29)

###

- EXPERIMENT DESCRIPTION: Fluorescence spectroscopy
- Type: physicochemical
- CONDITION SUMMARY: EtOH, free bases
READOUT NAME: λem (nm)

COc1cccc2c1CCCC2CCCN1CCN(C2CCN(CCCCCCNc3ccc([N+](=O)[O-])c4nonc34)CC2)CC1 (stereo not shown) = 520
COc1cccc2c1CCCC2CCCN1CCN(C2CCN(CCCCCCNS(=O)(=O)c3cccc4c(N(C)C)cccc34)CC2)CC1 (stereo not shown) = 507
O=[N+]([O-])c1ccc(NCCOCCOc2cccc3c2CCCC3CCCN2CCN(C3CCCCC3)CC2)c2nonc12 (stereo not shown) = 520
CN(C)c1cccc2c(S(=O)(=O)NCCCCCCOc3cccc4c3CCCC4CCCN3CCN(C4CCCCC4)CC3)cccc12 (stereo not shown) = 507

###

- EXPERIMENT DESCRIPTION: Fluorescence spectroscopy
- Type: physicochemical
- CONDITION SUMMARY: EtOH, free bases
READOUT NAME: λexc (nm)

COc1cccc2c1CCCC2CCCN1CCN(C2CCN(CCCCCCNc3ccc([N+](=O)[O-])c4nonc34)CC2)CC1 (stereo not shown) = 476
CN(C)c1cccc2c(S(=O)(=O)NCCCCCCOc3cccc4c3CCCC4CCCN3CCN(C4CCCCC4)CC3)cccc12 (stereo not shown) = 335
COc1cccc2c1CCCC2CCCN1CCN(C2CCN(CCCCCCNS(=O)(=O)c3cccc4c(N(C)C)cccc34)CC2)CC1 (stereo not shown) = 335
O=[N+]([O-])c1ccc(NCCOCCOc2cccc3c2CCCC3CCCN2CCN(C3CCCCC3)CC2)c2nonc12 (stereo not shown) = 465

###

- EXPERIMENT DESCRIPTION: Fluorescence spectroscopy
- Type: physicochemical
- CONDITION SUMMARY: PBS, free bases
READOUT NAME: λem (nm)

O=[N+]([O-])c1ccc(NCCOCCOc2cccc3c2CCCC3CCCN2CCN(C3CCCCC3)CC2)c2nonc12 (stereo not shown) = 520
COc1cccc2c1CCCC2CCCN1CCN(C2CCN(CCCCCCNS(=O)(=O)c3cccc4c(N(C)C)cccc34)CC2)CC1 (stereo not shown) = 510
CN(C)c1cccc2c(S(=O)(=O)NCCCCCCOc3cccc4c3CCCC4CCCN3CCN(C4CCCCC4)CC3)cccc12 (stereo not shown) = 485
COc1cccc2c1CCCC2CCCN1CCN(C2CCN(CCCCCCNc3ccc([N+](=O)[O-])c4nonc34)CC2)CC1 (stereo not shown) = 535

###

- EXPERIMENT DESCRIPTION: Fluorescence spectroscopy
- Assay type: physicochemical
- CONDITION SUMMARY: CHCl3
READOUT NAME: λexc (nm)

CN(C)c1cccc2c(S(=O)(=O)NCCCCCCOc3cccc4c3CCCC4CCCN3CCN(C4CCCCC4)CC3)cccc12 (stereo not shown) [compound 18] = 340
COc1cccc2c1CCCC2CCCN1CCN(C2CCN(CCCCCCNS(=O)(=O)c3cccc4c(N(C)C)cccc34)CC2)CC1 (stereo not shown) [compound 8] = 346
COc1cccc2c1CCCC2CCCN1CCN(C2CCN(CCCCCCNc3ccc([N+](=O)[O-])c4nonc34)CC2)CC1 (stereo not shown) [compound 7] = 450
O=[N+]([O-])c1ccc(NCCOCCOc2cccc3c2CCCC3CCCN2CCN(C3CCCCC3)CC2)c2nonc12 (stereo not shown) [compound 17] = 450
